For each of the compounds below, state its fold change (FC).
# Tested on: PC-3
# Test Name: Antiproliferative activity against human PC3 cells at 2 uM after 120 hrs by MTT assay relative to DMSO
# Format: functional
Give bare numbers.

Guide cases for fold change (FC), answers given:
O=S(=O)(NCCNC/C=C/c1ccc(Br)cc1)c1cccc2cnccc12; 1.028
Cc1cc2c(s1)Nc1ccccc1N=C2N1CCN(C)CC1; 1.059
CC(C)(C)NCC(O)c1ccc(O)c(CO)c1 (stereo unspecified); 0.926
OCCOCCN1CCN(C2=Nc3ccccc3Sc3ccccc32)CC1; 1.013
Cc1nc2n(c(=O)c1CCN1CCC(c3noc4cc(F)ccc34)CC1)CCCC2; 1.071
O=C1Cc2cc(CCN3CCN(c4nsc5ccccc45)CC3)c(Cl)cc2N1; 1.017

Below are 4 compounds. Give each one its fold change (FC).
1. CN1CCN(C2=Nc3cc(Cl)ccc3Nc3ccccc32)CC1
2. CC(C)NCC(O)COc1cccc2ccccc12 (stereo unspecified)
3. CC(C)NCC(O)c1ccc(O)c(O)c1 (stereo unspecified)
4. CC(C)(C)NCC(O)c1cc(Cl)c(N)c(Cl)c1 (stereo unspecified)

RESULT:
1: 0.977; 2: 0.986; 3: 0.955; 4: 0.963

QUERY: Item under review: CC1(C)CCC2=C(O1)c1ccccc1C(=O)C2=O . Reported fold change (FC)?
RESULT: 0.243

* * *

# Tested on: PC-3
# Test Name: Antiproliferative activity against human PC3 cells at 25 uM after 120 hrs by MTT assay relative to DMSO
# Format: functional
Non-standard residues stand in square brackets, D forms with d. Residues, ends and D or L forms follow the SMILES beside them. Nle = CCCC[C@H](N)C(=O)O
Record form. Attribute: fold change (FC). Fill in for each entry.
Give bare numbers.

C[S+]([O-])c1ccc(-c2nc(-c3ccc(F)cc3)c(-c3ccncc3)[nH]2)cc1 (stereo not given); 0.721
C[C@@H](N)[C@H]1CC[C@H](C(=O)Nc2ccncc2)CC1; 0.958
CCCC[C@@H](C=O)NC(=O)[C@H](CC(C)C)NC(=O)[C@H](CC(C)C)NC(C)=O (Ac-Leu-Leu-[Nle]-aldehyde); 0.26

Required: fold change (FC), one value per compound below.
1. O=c1cc(N2CCOCC2)oc2c(-c3ccccc3)cccc12
2. COc1ccc(C2CNC(=O)C2)cc1OC1CCCC1 (stereo not given)

RESULT:
1. 0.33
2. 1.065

* * *

# System: PC-3
# Test Name: Antiproliferative activity against human PC3 cells at 30 uM after 120 hrs by MTT assay relative to DMSO
# Type: functional
Quantity Kind: fold change (FC)
One number for each entry.

Example compounds with recorded fold change (FC):
CC[C@H](C)C(=O)O[C@H]1C[C@H](O)C=C2C=C[C@H](C)[C@H](CC[C@@H](O)C[C@@H](O)CC(=O)O)[C@H]21; 1.098
CC(C)(Oc1ccc(C2CC2(Cl)Cl)cc1)C(=O)O (stereo not drawn) [CIPROFIBRATE]; 1.047
Cc1ccc(C)c(OCCCC(C)(C)C(=O)O)c1; 1.046
CCC1(c2ccc(N)cc2)CCC(=O)NC1=O (stereo not drawn) [AMINOGLUTETHIMIDE]; 0.979

Hey, can you go through the list below and give me fold change (FC) for every item?
1. CCC(C)(C)C(=O)O[C@H]1C[C@@H](C)C=C2C=C[C@H](C)[C@H](CC[C@@H]3C[C@@H](O)CC(=O)O3)[C@H]21
2. COCc1c(C(C)C)nc(C(C)C)c(/C=C/[C@@H](O)C[C@@H](O)CC(=O)O)c1-c1ccc(F)cc1
3. CC[C@H](C)C(=O)O[C@H]1CCC=C2C=C[C@H](C)[C@H](CC[C@@H]3C[C@@H](O)CC(=O)O3)[C@H]21

RESULT:
1. 0.239
2. 0.254
3. 0.243
